Attribute: IC50
# STUDY SYSTEM: Endothelial PAS domain-containing protein 1 (Homo sapiens)
# ASSAY PROTOCOL: HIF-2a and HIF-1a reporter inhibition panel, dose response, selectivity assay for HIF-2a inhibitor project, cell-based, luminescence (AID 651581)
# CONDITION: HIF-2a PANC, run 2
REPORTED METRIC: IC50 (µM)

INSERT INTO results (compound, reported_metric, limit_operator, reading) VALUES
  ('Cc1nc2cc(-c3ccccc3)nn2c(C)c1CCC(=O)NC(C)c1ccc2c(c1)OCCO2 (stereo not drawn)', 'IC50', '=', 1.91),
  ('CN(C)S(=O)(=O)c1cccc(NC(=O)CSc2cccc3cccnc23)c1', 'IC50', '>', 99),
  ('C(=NNc1ccc2ccccc2n1)c1ccccn1', 'IC50', '=', 51.1),
  ('COc1ccccc1N1C(=O)C=C(Sc2nc(C)cc(C)n2)C1=O', 'IC50', '>', 99),
  ('CCOC(=O)C1CCN(C(=O)Nc2ccc3snnc3c2)CC1', 'IC50', '=', 56.8),
  ('Cc1nn(-c2ccccc2Cl)c(Cl)c1/C=N/Nc1cccc(C(=O)O)c1', 'IC50', '>', 99),
  ('COc1ccc(OCc2cccc(C(=O)Nn3cc([N+](=O)[O-])cn3)c2)cc1', 'IC50', '=', 13.4),
  ('CC(C)(C)c1ccc(/C=N/Nc2ccc(C(=O)O)cc2)cc1', 'IC50', '<', 0.3),
  ('COc1cccc(/C=N/Nc2ncccc2[N+](=O)[O-])c1OC', 'IC50', '=', 21.6),
  ('CC(=O)Nc1ccc(OC(=O)N2CCCCC2)cc1', 'IC50', '=', 3.65),
  ('COc1ccc(-n2nc3ccc(N)cc3n2)cc1', 'IC50', '=', 1.3),
  ('O=C(O)c1cccc(CSc2nnc(COc3ccccc3)o2)c1', 'IC50', '=', 18.8),
  ('CCOC(=O)Cc1csc(NC(=S)NC(=O)c2ccc([N+](=O)[O-])cc2)n1', 'IC50', '=', 34.5),
  ('O=C1C=CC(=O)N1c1cccc(-c2ccccc2)c1', 'IC50', '=', 58.5),
  ('CCOc1ccc(C(=O)Nc2cccc(C(=O)O)c2C)cc1Cl', 'IC50', '=', 31.5),
  ('Cc1nc2cc(-c3cccc(F)c3)nn2c(C)c1CCC(=O)N1CCC2(CC1)OCCO2', 'IC50', '=', 1.9),
  ('Cc1ccc(C(C)C)c(OCc2ccc(C(=O)N/N=C/c3ccc(C(=O)O)cc3)cc2)c1', 'IC50', '=', 0.248),
  ('O=C(OCC(F)(F)F)c1cccc(COc2ccc3ccccc3c2)c1', 'IC50', '<', 30),
  ('O=C(O)c1cccc(N/N=C/c2cccs2)c1', 'IC50', '=', 45.8),
  ('CN(C)c1c([N+](=O)[O-])cc(N2C(=O)C=CC2=O)cc1[N+](=O)[O-]', 'IC50', '=', 41.7),
  ('CC(=O)Nc1ccc(OS(=O)(=O)c2ccc(C)cc2C)cc1', 'IC50', '=', 9.84),
  ('O=C(O)COc1ccc2oc3ccccc3c2c1', 'IC50', '=', 20.5),
  ('Cc1nc(SCCC(=O)O)c2cc(-c3ccccc3)sc2n1', 'IC50', '=', 1.53);
